# Tested on: SKBr3 cell Hsp90
# PROCEDURE SUMMARY: EC50 for Hsp90 binding in SKBr3 cell lysate
# CONDITION INFO: read-out: EC50, binding to SKBr3 cell Hsp90
Overview of recorded log10 of EC50 for various molecules
READOUT: log10 of EC50 (log10 of the value in nM)

>>> print(df.to_string())
                                    molecule  quantitative_readout
 0  CC(C)NCCCn1c(Sc2cc3c(cc2C2C=COC2)OCO3)nc2c(N)ncnc21 (stereo not shown)                  3.32
 1  CC(C)(C)CNCCN1C(Sc2cc3c(cc2I)OCCO3)=NC2C(N)=NC=NC21 (stereo not shown)                  1.54
 2  COc1ccc(-c2ccco2)c(Sc2nc3c(N)ncnc3n2CCNCC(C)(C)C)c1                  1.92
 3  CC(C)NCCCn1c(Sc2cc3c(cc2-c2ccco2)OCO3)nc2c(N)ncnc21                  1.34
 4  CC(C)NCCCn1c(Sc2cc3c(cc2I)OCCO3)nc2c(N)ncnc21                  1.54
 5  COc1ccc(-c2cc3c(cc2Sc2nc4c(N)ncnc4n2CCCNC(C)C)OCO3)cc1                  3.01
 6  CC(C)NCCCn1c(Sc2cc3c(cc2-c2cc[nH]n2)OCCO3)nc2c(N)ncnc21                  1.05
 7  CC(C)NCCCn1c(Sc2cc3c(cc2-c2ncco2)OCO3)nc2c(N)ncnc21                  0.90
 8  Cc1ccc(-c2cc3c(cc2Sc2nc4c(N)ncnc4n2CCNCC(C)(C)C)OCO3)o1                  1.01
 9  CC(C)CNCCN1C(Sc2cc3c(cc2I)OCCO3)=NC2C(N)=NC=NC21 (stereo not shown)                  1.54
10  CC(C)NCCCn1c(Sc2cc3c(cc2-c2ccoc2)OCO3)nc2c(N)ncnc21                  1.93
11  CC(C)NCCCn1c(Sc2cc3c(cc2-c2cccs2)OCO3)nc2c(N)ncnc21                  1.90
12  CC(C)NCCCn1c(Sc2cc3c(cc2-c2ccccc2)OCO3)nc2c(N)ncnc21                  2.81

* * *

Overview of recorded EC50 for various compounds
# Test system: SKBr3 cell Hsp90
# PROCEDURE SUMMARY: EC50 for Hsp90 binding in SKBr3 cell lysate
# CONDITION INFO: read-out: EC50, binding to SKBr3 cell Hsp90
READOUT: EC50 (µM)

In [3]: df
Out[3]:
                                    compound  readout  qualifier_operator  quantitative_readout
 0  CC(C)NCCCn1c(Sc2cc3c(cc2CC#N)OCO3)nc2c(N)ncnc21     EC50                   =                  1.13
 1  CC(C)NCCCn1c(Sc2cc3c(cc2-c2ccc(C(C)(C)C)cc2)OCO3)nc2c(N)ncnc21     EC50                   =                  6.24
 2  CC(C)NCCCn1c(Sc2cc3c(cc2-c2ccco2)OCCO3)nc2c(N)ncnc21     EC50                   =                0.0069
 3  CC(C)NCCCn1c(Sc2cc3c(cc2-c2ccc(C=O)cc2)OCO3)nc2c(N)ncnc21     EC50                   >                     3
 4  CC(C)(C)CNCCn1c(Sc2cc3c(cc2-c2cccs2)OCO3)nc2c(N)ncnc21     EC50                   =                0.0185
 5  CC(C)(C)CNCCn1c(Sc2cc3c(cc2-c2cc[nH]n2)OCO3)nc2c(N)ncnc21     EC50                   =                0.0055
 6  CC(C)(C)CNCCn1c(Sc2cc3c(cc2-c2ccoc2)OCO3)nc2c(N)ncnc21     EC50                   =                0.0101
 7  CC(C)NCCCn1c(Sc2cc3c(cc2-c2nccs2)OCO3)nc2c(N)ncnc21     EC50                   =                 0.047
 8  Cc1ccc(-c2cc3c(cc2Sc2nc4c(N)ncnc4n2CCCNC(C)C)OCO3)o1     EC50                   =                 0.037
 9  CC(C)(C)CNCCn1c(Sc2cc3c(cc2-c2cc[nH]c2)OCO3)nc2c(N)ncnc21     EC50                   =                0.0246
10  NCCCCCCNCCCn1c(Sc2cc3c(cc2-c2cc(C(F)(F)F)cc(C(F)(F)F)c2)OCO3)nc2c(N)ncnc21     EC50                   =                    15
11  CC(C)NCCCn1c(Sc2cc3c(cc2-c2ccncc2)OCO3)nc2c(N)ncnc21     EC50                   =                  9.62
12  CC(C)NCCCn1c(Sc2cc3ccccc3cc2I)nc2c(N)ncnc21     EC50                   =                 0.097
13  COc1ccc(-c2cccs2)c(Sc2nc3c(N)ncnc3n2CCNCC(C)(C)C)c1     EC50                   =                  0.24
14  CC(C)NCCCn1c(Sc2cc3c(cc2-c2ccc(Br)cc2)OCO3)nc2c(N)ncnc21     EC50                   =                  1.39
15  CC(C)NCCCn1c(Sc2cc3c(cc2-c2ccc[nH]2)OCO3)nc2c(N)ncnc21     EC50                   =                  0.74
16  CC(C)NCCCn1c(Sc2cc3c(cc2-c2cc[nH]c2)OCO3)nc2c(N)ncnc21     EC50                   =                 0.161
17  CC(C)NCCCn1c(Sc2cc3c(cc2C2C=CCN2)OCO3)nc2c(N)ncnc21 (stereo not shown)     EC50                   =                  26.7
18  COc1ccc(-c2cc[nH]n2)c(Sc2nc3c(N)ncnc3n2CCNCC(C)(C)C)c1     EC50                   =                 0.032
19  CC(C)NCCCn1c(Sc2cc3c(cc2C2C=CCC2)OCO3)nc2c(N)ncnc21 (stereo not shown)     EC50                   =                 0.394
20  CC(C)NCCCn1c(Sc2cc3c(cc2-c2ncco2)OCCO3)nc2c(N)ncnc21     EC50                   =                0.0035
21  CC(C)NCCCn1c(Sc2cc3c(cc2-c2ccc(C=O)o2)OCO3)nc2c(N)ncnc21     EC50                   =                 0.141
22  CC(C)NCCCn1c(Sc2cc3c(cc2-c2cn[nH]c2)OCO3)nc2c(N)ncnc21     EC50                   =                  1.02
23  Nc1ncnc2c1nc(Sc1cc3c(cc1I)OCCO3)n2CCCn1ccnc1     EC50                   =                0.0628
24  CC(C)NCCCn1c(Sc2cc3c(cc2-c2cc[nH]n2)OCO3)nc2c(N)ncnc21     EC50                   =                0.0055
25  CC(C)(C)CNCCn1c(Sc2cc3c(cc2-c2ccco2)OCO3)nc2c(N)ncnc21     EC50                   =                0.0065
26  CC(C)NCCCn1c(Sc2cc3c(cc2-c2ccc(N(C)C)cc2)OCO3)nc2c(N)ncnc21     EC50                   =                  2.52
27  CC(C)NCCCn1c(Sc2cc3c(cc2C2CC=CO2)OCO3)nc2c(N)ncnc21 (stereo not shown)     EC50                   =                 0.509
